# TEST SUMMARY: gradient 5% acetonitrile 3 min, to 50% in 2 min, to 85% in 15 min, held 3 min, 100 µL/min
# CONDITIONS USED: column: Zorbax Extend-C18 2.1 x 50 mm; eluents: water / acetonitrile, 0.1% formic acid
Assign labels as follows, please: Fulfilled for RP-LC retention time below 800 s; Not fulfilled for RP-LC retention time equal to or exceeding 800 s.

RECORD SMILES: Cc1ccc(-c2csc(NC(=O)CSc3nc4c(cc3C#N)CCCC4)n2)cc1
CLASS NAME: Not fulfilled

RECORD SMILES: CCOc1ccc(CNC(=O)c2cc3c(=O)n(CC)c4ccccc4n3n2)cc1OC
CLASS NAME: Not fulfilled

RECORD SMILES: COC(=O)c1cccc(C(=O)Nc2ccc(Cl)cc2C)n1
CLASS NAME: Not fulfilled

RECORD SMILES: Cc1ccc(-n2ncc3c(C)nnc(SCC(=O)N4CCC(C)CC4)c32)cc1C
CLASS NAME: Fulfilled

RECORD SMILES: COc1ccc(NS(=O)(=O)c2ccc(-c3nnc(C4CCC4)o3)o2)cc1Cl
CLASS NAME: Not fulfilled

RECORD SMILES: Cc1ccc(S(=O)(=O)c2cnc(N3CCN(C4CCCCC4)CC3)nc2N)cc1C
CLASS NAME: Fulfilled

RECORD SMILES: Cc1cccc(N2CCN(Cc3nc4nc(C)cc(N5CCCC5)n4n3)CC2)c1
CLASS NAME: Fulfilled
